assay.comment: ATG_DR4_LXR_CIS: Attagene CIS-FACTORIAL HepG2 Assay for human Liver X Receptor (LXR), DR4 submotif (AID 2282929)
condition.parameters: HepG2 Attagene DR4 cis-reporter, mRNA transcription; actives raise or lower the signal
Calls of active or inactive are those of the source. How the source made its calls: active means hit-call score of the fitted dose curve at least 0.9, where 1 is the maximum; inactive means score below 0.9.
Outcome (select one): TRUE (active), FALSE (inactive)

What did this assay record as the result for O=C1c2c(O)cccc2Cc2cccc(O)c21 ?
FALSE

Check the results log: what was the call for CCCC[C@H]1CN(CC2CCOCC2)C(=O)OC12CCN(C1(C)CCN(C(=O)c3c(C)ncnc3C)CC1)CC2 ?
FALSE

Assay outcome for CN(C)C(=O)NC1(c2ccccc2)CCN(CCC[C@]2(c3ccc(Cl)c(Cl)c3)CCCN(C(=O)c3ccccc3)C2)CC1 : what was it?
TRUE

GET /call?item= COC(=O)CCC(=O)OC returns the recorded outcome of this test.
FALSE

Hi, sorry to bother you, what did the test record for NC1CCCCC1 ?
FALSE

Outcome logged for CC(C)NCC(O)c1ccc(O)c(O)c1 (configuration not stated) in this assay:
FALSE

So what was the verdict on Nc1nc(=S)c2[nH]cnc2[nH]1 in this test?
FALSE

// outcome(item) with item = Oc1ccccc1O
FALSE

Please state the recorded outcome for this compound: Oc1ccc(O)cc1
FALSE

Query: recorded result category for Cc1c(C)c2c(c(C)c1O)CCC(C)(COc1ccc(CC3SC(=O)NC3=O)cc1)O2 (configuration not stated) in this test
TRUE

Assay outcome for Cc1ccc(-c2cc(C(F)(F)F)nn2-c2ccc(S(N)(=O)=O)cc2)cc1 : what was it?
TRUE

Hi, sorry to bother you, what did the test record for O=C(Oc1ccccc1)c1cccc(C(=O)Oc2ccccc2)c1 ?
FALSE

----------
Read-out: UDP glucuronosyltransferase (UGT1A1), UGT1A1 (gene 54658)
assay.comment: LTEA_HepaRG_UGT1A1: Life Technologies and Expression Analysis (LTEA) Assay for UDP glucuronosyltransferase (UGT1A1) using HepaRG (AID 2283538)
condition.parameters: mRNA level, 48 h; actives raise or lower the signal
The source made the active and inactive calls. How the source made its calls: active means hit-call score of the fitted dose curve at least 0.9, where 1 is the maximum; inactive means score below 0.9.
Write down one outcome, taken from y = active, n = inactive

Here are 3 compounds together with their reported answers.
[
  {
    "compound": "CCc1cc(C2=C(C(=O)O)N(c3ccccc3C(F)(F)F)S(=O)(=O)c3ccccc32)cc2c1OCO2",
    "classification": "y"
  },
  {
    "compound": "Cn1cnc2c1c(=O)[nH]c(=O)n2C",
    "classification": "n"
  },
  {
    "compound": "COC(=O)CCCC(=O)OC",
    "classification": "n"
  }
]

Answer briefly: the call reported for NC=O in this assay.
n

Just curious, what result did S=c1[nH]c2ccccc2s1 get here?
n

Please share the test call associated with CC(=O)CC(c1ccccc1)c1c(O)c2ccccc2oc1=O (configuration not stated) .
n

What is the recorded call for this compound in the test? O=C1OC(c2ccc(O)cc2)(c2ccc(O)cc2)c2ccccc21
y

Can you look up the reported call for O=C1O[C@H]([C@H](O)CO)C(O)=C1O for me?
n

Give the logged outcome of this assay for the following compound: OCC(CO)n1cnc(-c2ccc(F)cc2)c1-c1ccnc(Oc2ccccc2)n1
y

For O=C(Oc1ccccc1)c1cccc(C(=O)Oc2ccccc2)c1 , which call appears in the assay record?
n

What call does the record list for O=NO ?
n

Fill in: this test's call for Cc1ccc(C(C)(C)C)c(O)c1 is ___
n

Hey, what did the test say about CCCCC(CC)COP(=O)(OCC(CC)CCCC)OCC(CC)CCCC (configuration not stated) ?
y

All figures here come from PubChem BioAssay (EPA / NIEHS).
